Just for reference, ChEMBL document CHEMBL4024768 is where these values come from.

experiment: Inhibition of PDE4 in human PBMC assessed as reduction in LPS-induced TNFalpha release after 18 hrs by quantitative ELISA
Consider the reported IC50 of an entry and match it to a band in lo (below 0.04 nM), mid (0.04 nM to below 0.4 nM), hi (0.4 nM or more)

Below are worked cases with known answers.
[
  {
    "compound": "CN(C)C(=O)c1cccc(S(=O)(=O)N2CCS[C@H]2C(=O)O[C@@H](Cc2c(Cl)c[n+]([O-])cc2Cl)c2ccc(OC(F)F)c(O)c2)c1 (relative stereo)",
    "class-label": "hi"
  },
  {
    "compound": "COc1ccc(S(=O)(=O)N2CCC[C@H]2C(=O)O[C@@H](Cc2c(Cl)c[n+]([O-])cc2Cl)c2ccc(OC(F)F)c(OCC3CC3)c2)cc1C(=O)N(C)C (relative stereo)",
    "class-label": "mid"
  },
  {
    "compound": "COCCS(=O)(=O)N1CCC[C@H]1C(=O)O[C@@H](Cc1c(Cl)c[n+]([O-])cc1Cl)c1ccc(OC(F)F)c(OCC2CC2)c1 (relative stereo)",
    "class-label": "mid"
  },
  {
    "compound": "COCCC(=O)N1CCS[C@H]1C(=O)O[C@@H](Cc1c(Cl)c[n+]([O-])cc1Cl)c1ccc(OC(F)F)c(OCC2CC2)c1 (relative stereo)",
    "class-label": "hi"
  },
  {
    "compound": "O=C(O[C@@H](Cc1c(Cl)c[n+]([O-])cc1Cl)c1ccc(OC(F)F)c(OCC2CC2)c1)[C@@H]1CCCCN1S(=O)(=O)c1ccccc1 (relative stereo)",
    "class-label": "mid"
  },
  {
    "compound": "[O-][n+]1cc(Cl)c(C[C@H](O)c2ccc(OC(F)F)c(OCC3CC3)c2)c(Cl)c1",
    "class-label": "hi"
  },
  {
    "compound": "CN(C)C(=O)c1cccc(S(=O)(=O)N2CCS[C@H]2C(=O)O)c1",
    "class-label": "hi"
  },
  {
    "compound": "COc1ccc(S(=O)(=O)N2CCC[C@H]2C(=O)O[C@@H](Cc2c(Cl)c[n+]([O-])cc2Cl)c2ccc(OC(F)F)c(OCC3CC3)c2)cc1OC (relative stereo)",
    "class-label": "mid"
  }
]

Please report the category associated with CN(C)C(=O)c1cccc(S(=O)(=O)N2CCC[C@H]2C(=O)O[C@@H](Cc2c(Cl)c[n+]([O-])cc2Cl)c2ccc(OC(F)F)c(OCC3CC3)c2)c1 (relative stereo) , nothing else.
lo

Record Cc1cc(S(=O)(=O)N2CCS[C@H]2C(=O)O[C@@H](Cc2c(Cl)c[n+]([O-])cc2Cl)c2ccc(OC(F)F)c(OCC3CC3)c2)c(C)s1 (relative stereo) — which class?
mid

Sort Cn1cnc(S(=O)(=O)N2CCS[C@H]2C(=O)O[C@@H](Cc2c(Cl)c[n+]([O-])cc2Cl)c2ccc(OC(F)F)c(OCC3CC3)c2)c1 into one of the categories.
lo
